Cited source: the domain aggregation screens of Martell et al. (2025)

test: soluble fraction after stress (log2 fold change); higher = more stays soluble; pooled small domains, quantitative proteomics; details: stress: pH 4
Note: every record was labeled by where its soluble fraction (log2) sits among range 1 = under -0.2, range 2 = from -0.2 up to 0.008, range 3 = 0.008 and over

HMFPATAPQLKAVHAILGKQGISDELDKLARVNEWLVGLNKEPVAAISELDKHTTSGLIDHLQGELNE
range 2
HMEGPALKVWKARYLRAAILEQLLSDRWDDRGGQPIRVVVNEPTNSLLIRIPRHLWPEAEKLLQELDQR
range 1
HMAAHWANFLEALRAGRARRVLVARGVEGWLLKELERLGAPYTLVPRIELDTLLRTTHHQGIAAEVE
range 1

Input HMKVTRWEDTGMKPAEAQEWQHYDFKPQEAMNWRDAGFVPLVARTWSDKGFDASEAQAWRDSVRNS ; output its category
range 3

Exercise: read the entry HMGDYERVPEYKGKLTSDLTMEDSQKFAFRFIWQNSDEDEGKIIDQDPPAGKSVAKGSEIVLYVSNG and state which class it falls under.
range 2

Which bin should I file HMQGRIYLNPDLAEKLRAQYAAYPHWSYLLHTENLGALVRKTESLGPMPSYSTILRYMHANDMRKRNKP under?
range 2

Sort HMFSPTKLKEKRESQGLSQSQLASSLGISRASYFNWESGKTKPNQNNLSKLSEILNVDPRYF into one of the categories.
range 3

Bin this entry: HMGVKHKHKGAGELLAALRTMFPNSSVSTLRKMLTQGRVVLNGEVVHRAKHELTDGDTIEVLERQRAER
range 3

Please indicate the class for HMGFLTKTQRLEILLHLKDEPYYNVEKLKELIKNRYGIVYQSSQSYYDLLKEAGLSWHQTQA based on its soluble fraction (log2).
range 3

Any idea which band HMEKVLPFEFERKFKTNHTAWDFFSNQAPPSYRKTVIHWILSAKQEITRISRLEKLIAASEQQKRI is in?
range 1

Input HMKTFQSYQTTSMSNVNLRKRANGTSTILKRIKVGDTVTVVGKSGNYYQIQFDGKEGYALIKYIDGTDSGA ; output its category
range 2

Please report the category associated with HMSTTDGIERFLASGAVKGIGRTMAARIVEHFGSRTLTVMESEPERLTEVAGIGRKKAESIAASYAELS , nothing else.
range 2

Band assignment needed for HMGEAIPVPDLKHKALTDAEHLVHELGLEIQVVDTGYVKSLPADYILGQSLAPGEKVKSGHIIYVTINSP please.
range 3

// return the class label for HMNFTMERLYTKELTSEDIDEIKKELNSMGYTEGVEFNIIKGDKTSFIMAERQLKAKMLSHLSDLGLPRGA
range 3

Pick a category. Item: HMEAAETAVVTGTIVNIRSGPTLDFEAFAQVKQGDRLPVLDKFYNWYYVKLPSGVNGWISGQLVRIEQ
range 1

Which bin should I file HMFTLDIGTIIRNRRLELNLTLEEIGNAVGVSKSTVQKWENGFISNMKRDKISALAKVLNINPVTLITGEY under?
range 1

###

assay: soluble fraction after stress (log2 fold change); higher = more stays soluble; pooled small domains, quantitative proteomics; settings: stress: pH 4
MEASURED ENDPOINT: soluble fraction (log2)
Lab note: jot down the number only; don't add units.

Would you please look over these solved cases?
HMTAPQAQDYARVPDVLGLDMRESAQALRLDGFEMNAQGDGLAARQSPIGGSYAPEGTQVLVTFEM
-0.0592
HMTIPRLPFAFAKRFGIVLDNRPSGFVAAHKEGLLPHVLLEVQRFLGDAYTLEVVSDDDFERILGQVYQT
-2.03
HMKLIRLGKAAGELNVGMSTLAEFLQSKGHSVDPNPNTKLTPEQYALLRMEFAADQTLKKLTKQP
-0.117
HMGQDLSYYIKIVQNQQPVDPLTGEPKVLDYGEVIRQAQILQMLDTGDLDRDKAIGQLSMKDAL
-0.26
HMNNTIKFSVDENNSGKRLDVYLTENINHLTRSFLKKLIEKEQVKLNKKVLTSPATKVKTKDQITINIIE
-0.26
HMQWGKVRRLPSGRYQASYVHKGTRYTAPETYTVQGRAHGWIESERRLIVTDTWTPPDTRPS
-0.202
HMGKLGENIKRIREGMGLSQRQFGELIGKSDSQIWSYENDRTDILASTLYKIAAVANVDFNNLMAGIIP
-1.35
HMRIWTPEMIKEYIISSNGKEPLNSHYYSTNHPSIYAAAERIFGSWGNAINAAGLDYNAIRKYK
-0.0687
HMNSVKSPMPGTILGLKVSVGDTVKVGDELLVLESMKMENMINSPIDGTVSKILISEGDSVQHGQELII
0.102
HMFDGNIKIVEDAFSVTIVARGTEVKISGDPENVYLASKTVEGLLTLIDKGEAITDQRVHYVIGLVREG
-1.71

Could you share which soluble fraction (log2) value was measured for HMQNELAEARSQLAERKNIDQAKLILMKKRNISEPEAYKLLRSHAMQTNRRVAEVAESIITAESLLG ?
0.0831

Return reported soluble fraction (log2); argument: HMSGLGELTPRELEVLELMAQGLSNSQIAGRLFLSGAAVAKHVSSIFSKLGFEPGDENRRVRAILAFLNR
-0.751

Please give the measured soluble fraction (log2) for this sequence: HMISLNEDQKLAILNEWNQRPDDPPFIKELIELVFPDIPEEAKTGRSRYGIAIKKFLAEKSLQAKV
-0.554
